The measured values listed here are drawn from the nanobody polyreactivity screen of Harvey et al. (2022).

assay: yeast display, Sf9 membrane polyspecificity reagent, FACS + sequencing; frameworks hold sequencing errors
quantity.kind: polyreactivity (PSR sort gate)

Please review the following examples before continuing.
QVQLVESGAGLVQAGVSLRLSCAASGRIFVVNAMGRYRHAPGKERELVAAISRGGSTNYADSVKGPFTISRDNAKNTVYLQMNSLKPEDTAVYYCNADGSSYWYPVPLDGGDYWGQGTLVTVSS | low polyreactivity
QVQLVESGGGLVQAGGRLRLSCAASGSIFYSNAMGWYRQAPGKEREFVAAISAGGGSTYYADSVKGRFTISRDNAKNTVYLQMNSMKPEDTAVYFCAAQPYKIIYPYDYWGQGTQVTVSS | low polyreactivity
QVQLVESGGGLVQAGGSLRISCAASGSIFGDNAMGWYRHAPGKERELVAAITFSGGSTHYADSVKGRFTISRDTAKNTVYLQMNSLKPEDTAVYYCAKRWRYSKHVNYYYWGQGTQVTVSS | high polyreactivity
QVQLVESGGGLVQAGGSLRLSCAASGSIFRRYVMGWYRQAPGKERELVASISSNGTSTYYADSVKGRFTISRDNSKNTVYLQMNSLKPEDTAVYYCNVDIFDPRTYDYWGQGTQVTVSS | low polyreactivity
QVQLVESGGGLVQAGGSLRLSCAASGITFWPYAMGWYIQAPGKERELVAAIRASAGRTYYADSVKGRFTISRDNAKNTVYLQMNSLKPEDTAVYYCNAYGRYGKFRVEYDYWGQGTQVTVSS | low polyreactivity

Dear colleague, I am looking for the recorded polyreactivity (PSR sort gate) of the following sequence: "QVQLVESGGGLVQAGGSLRLSCAASGRTFRYYAMGWYRKAPGKERELVATISKSGGSTYYADSVKGRFTISRDNAKNTVYLQMNSLKPEDTAVYYCAAVGPYRWYDYWGQGTQVTVSS" high polyreactivity

For "QVQLVESGGGLVQAGGSLRLSCAASGIIFIGNAMGWYRQAPGKERELVAAISRRGGGTYYADSVKGRFTISRDNAKNTVYLQMNSLKPEDTAVYYCNAEITVNDDDYWGQGTQVTVSS" , what is its reported polyreactivity (PSR sort gate)? high polyreactivity

For "QVQLVESGGGLVQAGGSLRLSCAASGSIIFVYAMGCYRQAPGKERELVAGINSSGTSTYADSVKGRFTISRDNAKNTVYLQMNSLKPEDTAVYYCAARWFYYRWAYDYWGQGTQVTVSS" , what is its reported polyreactivity (PSR sort gate)? low polyreactivity

Which measured polyreactivity (PSR sort gate) value corresponds to "QVQLVESGGGLVQAGGSLRLSCAASGSIFWIYAMGWYRQAPGKERELVARITWTGGRTYYADSVKGRFTISRDNAKNTVYLQMNSLKPEDTAVYYCAVTSYRQRGAFDYWGQGSQVTVSS" ? high polyreactivity

Form field: reported polyreactivity (PSR sort gate) of "QVQLVESGGGLVQAGGSLRLSCAASGRTFWYYTMGWYRQAPGKERELVASITYRGGSTYYADSVKGRFTISRDNAKNTVYLQMNSLKPEDTAVYFCNARYKRYSYDYWGHGTQVTVSS" high polyreactivity

# polyreactivity (PSR sort gate) lookup, item "QDQLVESGGGLVQAGGSLRLSCAASGGNFPPYDMGWYRQAPGKERDLVATISSDSTNYADSVKGRFTISRDNAKNTVYLQMNSLKPEDSAVYYCAVRFYWAPGGGEYDYWGQGTQVTVSS" low polyreactivity
